Kindly supply the reported activity coefficient values for the records listed here.
experiment: activity coefficient (dimensionless); of the first substance listed, at infinite dilution; xn = mol fraction of the nth substance listed; settings: 328.15 K; 101 kPa; Liquid; Chromatography; x1 = 0
// response body must contain only the number

Ask | State the recorded activity coefficient for this entry: C=CCCCCCC [oct-1-ene] + CCCCCC[N+]1(C)CCCCC1.O=S(=O)([N-]S(=O)(=O)C(F)(F)F)C(F)(F)F
Reply | 7.49

Ask | Param item: CCCC(C)=O [pentan-2-one] + CCCCCC[N+]1(C)CCCCC1.O=S(=O)([N-]S(=O)(=O)C(F)(F)F)C(F)(F)F
Reply | 0.596

Ask | Param item: CCc1ccccc1 [ethylbenzene] + CCCCC[N+]1(C)CCCCC1.O=S(=O)([N-]S(=O)(=O)C(F)(F)F)C(F)(F)F
Reply | 1.35

Ask | Param item: C#CCCCCC [1-heptyne] + CCCCC[N+]1(C)CCCCC1.O=S(=O)([N-]S(=O)(=O)C(F)(F)F)C(F)(F)F
Reply | 2.84

Ask | Param item: C1CCCCCCC1 [cyclooctane] + CCCCC[N+]1(C)CCCCC1.O=S(=O)([N-]S(=O)(=O)C(F)(F)F)C(F)(F)F
Reply | 9.06

Ask | Param item: C=CCCCC [hex-1-ene] + CCCCC[N+]1(C)CCCCC1.O=S(=O)([N-]S(=O)(=O)C(F)(F)F)C(F)(F)F
Reply | 5.13

Ask | Param item: CCc1ccccc1 [ethylbenzene] + CCCCCC[N+]1(C)CCCCC1.O=S(=O)([N-]S(=O)(=O)C(F)(F)F)C(F)(F)F
Reply | 0.909

Ask | Param item: CCO [ethanol] + CCCCCC[N+]1(C)CCCCC1.O=S(=O)([N-]S(=O)(=O)C(F)(F)F)C(F)(F)F
Reply | 1.49

Ask | Param item: C=CCCCCCC [oct-1-ene] + CCCCC[N+]1(C)CCCCC1.O=S(=O)([N-]S(=O)(=O)C(F)(F)F)C(F)(F)F
Reply | 9.28

Ask | Param item: C=CCCCCC [1-heptene] + CCCCC[N+]1(C)CCCCC1.O=S(=O)([N-]S(=O)(=O)C(F)(F)F)C(F)(F)F
Reply | 6.88

Ask | Param item: C1CCCCCCC1 [cyclooctane] + CCCCCC[N+]1(C)CCCCC1.O=S(=O)([N-]S(=O)(=O)C(F)(F)F)C(F)(F)F
Reply | 7.15

Ask | Param item: C1=CCCCC1 [cyclohexene] + CCCCCC[N+]1(C)CCCCC1.O=S(=O)([N-]S(=O)(=O)C(F)(F)F)C(F)(F)F
Reply | 2.94

Ask | Param item: Cc1ccccc1C [1,2-dimethylbenzene] + CCCCCC[N+]1(C)CCCCC1.O=S(=O)([N-]S(=O)(=O)C(F)(F)F)C(F)(F)F
Reply | 1.1

Ask | Param item: C=CCCCCCCCC [1-decene] + CCCCC[N+]1(C)CCCCC1.O=S(=O)([N-]S(=O)(=O)C(F)(F)F)C(F)(F)F
Reply | 15.9

Ask | Param item: C1CCCCC1 [cyclohexane] + CCCCC[N+]1(C)CCCCC1.O=S(=O)([N-]S(=O)(=O)C(F)(F)F)C(F)(F)F
Reply | 5.64

Ask | Param item: Cc1ccc(C)cc1 [1,4-dimethylbenzene] + CCCCC[N+]1(C)CCCCC1.O=S(=O)([N-]S(=O)(=O)C(F)(F)F)C(F)(F)F
Reply | 1.28

Ask | Param item: CO [methanol] + CCCCCC[N+]1(C)CCCCC1.O=S(=O)([N-]S(=O)(=O)C(F)(F)F)C(F)(F)F
Reply | 1.26

Ask | Param item: CCCCCCCCCC [decane] + CCCCCC[N+]1(C)CCCCC1.O=S(=O)([N-]S(=O)(=O)C(F)(F)F)C(F)(F)F
Reply | 21.1

Ask | Param item: CCCCCC [hexane] + CCCCCC[N+]1(C)CCCCC1.O=S(=O)([N-]S(=O)(=O)C(F)(F)F)C(F)(F)F
Reply | 7.07

Ask | Param item: CCCCCCC [heptane] + CCCCC[N+]1(C)CCCCC1.O=S(=O)([N-]S(=O)(=O)C(F)(F)F)C(F)(F)F
Reply | 11.8

Ask | Param item: Cc1ccccc1C [1,2-dimethylbenzene] + CCCCC[N+]1(C)CCCCC1.O=S(=O)([N-]S(=O)(=O)C(F)(F)F)C(F)(F)F
Reply | 1.16

Ask | Param item: CCCCCCCCC [nonane] + CCCCCC[N+]1(C)CCCCC1.O=S(=O)([N-]S(=O)(=O)C(F)(F)F)C(F)(F)F
Reply | 15.7

Ask | Param item: CCCO [propan-1-ol] + CCCCC[N+]1(C)CCCCC1.O=S(=O)([N-]S(=O)(=O)C(F)(F)F)C(F)(F)F
Reply | 1.68

Ask | Param item: C1CCCCC1 [cyclohexane] + CCCCCC[N+]1(C)CCCCC1.O=S(=O)([N-]S(=O)(=O)C(F)(F)F)C(F)(F)F
Reply | 4.6

Ask | Param item: CC1CCCCC1 [methylcyclohexane] + CCCCC[N+]1(C)CCCCC1.O=S(=O)([N-]S(=O)(=O)C(F)(F)F)C(F)(F)F
Reply | 7.16

Ask | Param item: CCCCC [pentane] + CCCCCC[N+]1(C)CCCCC1.O=S(=O)([N-]S(=O)(=O)C(F)(F)F)C(F)(F)F
Reply | 5.42

Ask | Param item: CCCCCO [pentan-1-ol] + CCCCC[N+]1(C)CCCCC1.O=S(=O)([N-]S(=O)(=O)C(F)(F)F)C(F)(F)F
Reply | 2.2

Ask | Param item: CC(C)CC(C)(C)C [2,2,4-trimethylpentane] + CCCCC[N+]1(C)CCCCC1.O=S(=O)([N-]S(=O)(=O)C(F)(F)F)C(F)(F)F
Reply | 11.8
